Where do the numbers come from? From patent US20260234115A1.

- measurement protocol: Dynamic light scattering: LNP particle size and PDI
- Type: physicochemical
- experimental setup: LNP compositions for in vivo mouse study; four formulations (F1-F4) pooled, or pools of four compounds
In this section we review reported PDI values for a set of molecules.
measured quantity: PDI

• CCCCCCC(CCC(=O)OCC(COC(=O)CCCCCCOC(=O)C(CCCC)CCCCCC)(COC(=O)CCCCCCOC(=O)C(CCCC)CCCCCC)COC(=O)CCCCCCOC(=O)C(CCCC)CCCCCC)OC(=O)NCCN1CCCC1 (stereo not drawn) = 0.066
• CCCCC/C=C\CCOC(=O)CCCCCC(=O)OCC(COC(=O)CCCCCC(=O)OCC/C=C\CCCCC)(COC(=O)CCC(CCCCCC)OC(=O)NCCN1CCCC1)COC(=O)CCC(OCCCCCCCC)OCCCCCCCC (stereo not drawn) = 0.07
• CCCCC/C=C\CCOC(=O)CCCCCC(=O)OCC(COC(=O)CCCCCC(=O)OCC/C=C\CCCCC)(COC(=O)CCCCCC(=O)OCC/C=C\CCCCC)COC(=O)CCC(CCCCCC)OC(=O)NCCN1CCCC1 (stereo not drawn) = 0.14
